Hi there, I'd appreciate the recorded logP for every entry that follows.
assay: Partition coefficient (logP); type: physicochemical; conditions: octanol/water

Worked set:
| compound | meas.value |
| --- | --- |
| CC(C)(C)c1cccc2c1OP(=O)(OC[C@H]1O[C@@H](n3cc(/C=C/Br)c(=O)[nH]c3=O)C[C@@H]1O)OC2 (stereo partly drawn) | 2.9 |
| CC(=O)O[C@H]1C[C@H](n2cc(/C=C/Br)c(=O)[nH]c2=O)O[C@@H]1COP1(=O)OCc2cccc(C)c2O1 (stereo partly drawn) | 2.2 |

Value lookup for logP; key = Cc1cccc2c1OP(=O)(OC[C@H]1O[C@@H](n3cc(/C=C/Br)c(=O)[nH]c3=O)C[C@@H]1OC(=O)[C@H](N)C(C)C)OC2 (stereo partly drawn) -0.1

These data points were gathered from ChEMBL document CHEMBL1135649.
